Assay: Absorption maximum after colour development in a photographic silver halide layer according to Use Example I
Type: physicochemical
Details: pyrazolone coupling agents
Assign Abs.max., second of two maxima (absorption maximum) to each entry below.
Express the result in nm but write the number alone.

stdin: Can you share its Abs.max., second of two maxima (absorption maximum)? I mean this molecule: CCCCOP(=O)(CCCOc1cccc(C(=O)NC2=NN(c3c(Cl)cc(Cl)cc3Cl)C(=O)C2)c1)OCCCC
stdout: 536

stdin: Thanks! And CCCCC(CC)COP(=O)(CCCOc1cccc(C(=O)Nc2cccc(NC(=O)NC3=NN(c4c(Cl)cc(Cl)cc4Cl)C(=O)C3)c2)c1)OCC(CC)CCCC (stereo not drawn) ?
stdout: 546

stdin: Thanks! And CCCCC(CC)COP(=O)(CCCOc1cccc(C(=O)Nc2cccc(C(=O)NC3=NN(c4c(Cl)cc(Cl)cc4OC)C(=O)C3)c2)c1)OCC(CC)CCCC (stereo not drawn) ?
stdout: 540

stdin: Thanks! And CCCCC(CC)COP(=O)(CCCOc1cccc(C(=O)Nc2cccc(C(=O)NC3=NN(c4c(Cl)cc(Cl)cc4Cl)C(=O)C3)c2)c1)OCC(CC)CCCC (stereo not drawn) ?
stdout: 542

stdin: Thanks! And CCCCOP(=O)(CCCOc1cc(OCCCP(=O)(OCCCC)OCCCC)cc(C(=O)Nc2cccc(NC3=NN(c4c(Cl)cc(Cl)cc4Cl)C(=O)C3)c2)c1)OCCCC ?
stdout: 532

stdin: Thanks! And CCCCC(CC)COP(=O)(CCCOc1cccc(OCC(=O)Nc2cccc(C(=O)NC3=NN(c4c(C)cc(C)cc4Cl)C(=O)C3)c2)c1)OCC(CC)CCCC (stereo not drawn) ?
stdout: 532

====

Assign Abs.max., second of two maxima (absorption maximum) to each entry below.
Assay: Absorption maximum after colour development in a photographic silver halide layer according to Use Example I
Assay type: physicochemical
Settings: pyrazolone coupling agents
Put your answer as a value accompanied by its unit after it.

stdin: Can you share its Abs.max., second of two maxima (absorption maximum)? I mean this compound: CCCCOP(=O)(CCCOc1cccc(NC2=NN(c3c(Cl)cc(Cl)cc3Cl)C(=O)C2)c1)OCCCC [(409)]
stdout: 530 nm

stdin: Thanks! And CCOP(=O)(CCCOc1cccc(C(=O)Nc2cccc(NC3=NN(c4c(Cl)cc(Cl)cc4Cl)C(=O)C3)c2)c1)OCC [(415)] ?
stdout: 532 nm

stdin: Thanks! And CCOP(=O)(CCCc1ccc(NC2=NN(c3c(Cl)cc(Cl)cc3Cl)C(=O)C2)cc1)OCC [(408)] ?
stdout: 530 nm

stdin: Thanks! And CCOP(=O)(CCCCCOc1cccc(C(=O)Nc2cccc(C(=O)NC3=NN(c4ccccc4)C(=O)C3)c2)c1)OCC [(227)] ?
stdout: 532 nm

====

Assign Abs.max., second of two maxima (absorption maximum) to each entry below.
Experiment: Absorption maximum after colour development in a photographic silver halide layer according to Use Example I
Format: physicochemical
Conditions: pyrazolone coupling agents
Express the result in nm but write the number alone.

stdin: Can you share its Abs.max., second of two maxima (absorption maximum)? I mean this compound: CC(C)OP(=O)(CCCCCOc1cccc(C(=O)Nc2ccc(C(=O)NC3=NN(c4c(Cl)cc(Cl)cc4Cl)C(=O)C3)cc2)c1)OC(C)C
stdout: 542

stdin: Thanks! And CCCCC(CC)COP(=O)(CCCOc1cccc(OCC(=O)Nc2cccc(C(=O)NC3=NN(c4c(Cl)cc(Cl)cc4Cl)C(=O)C3)c2)c1)OCC(CC)CCCC (stereo not shown) ?
stdout: 544

stdin: Thanks! And CCOP(=O)(CCCOc1cccc(C(=O)Nc2c(C)cc(C)c(N3N=C(Nc4ccc(Cl)cc4)CC3=O)c2C)c1)OCC ?
stdout: 530

stdin: Thanks! And CCCCOP(=O)(CCCOc1cc(OCCCP(=O)(OCCCC)OCCCC)cc(C(=O)Nc2cccc(NC(=O)NC3=NN(c4c(Cl)cc(Cl)cc4Cl)C(=O)C3)c2)c1)OCCCC ?
stdout: 547

stdin: Thanks! And CCCCOP(=O)(CCCOc1ccc(C(=O)Nc2cccc(C(=O)NC3=NN(c4c(Cl)cc(Cl)cc4Cl)C(=O)C3)c2)c(OCCCP(=O)(OCCCC)OCCCC)c1)OCCCC ?
stdout: 541

stdin: Thanks! And CCCCOP(=O)(CCCOc1cc(OCCCP(=O)(OCCCC)OCCCC)cc(C(=O)Nc2cccc(NC3=NN(c4ccccc4)C(=O)C3)c2)c1)OCCCC ?
stdout: 530

stdin: Thanks! And CCOP(=O)(CCCOc1cc(OCCCP(=O)(OCC)OCC)cc(C(=O)Nc2cccc(C(=O)NC3=NN(c4ccccc4)C(=O)C3)c2)c1)OCC ?
stdout: 533

stdin: Thanks! And CCOP(=O)(CCCOc1cccc(NC2=NN(c3c(Cl)cc(Cl)cc3Cl)C(=O)C2)c1)OCC ?
stdout: 526

stdin: Thanks! And CCCCOP(=O)(CCCOc1cc(OCCCP(=O)(OCCCC)OCCCC)cc(C(=O)NC2=NN(c3c(Cl)cc(Cl)cc3Cl)C(=O)C2)c1)OCCCC ?
stdout: 538

stdin: Thanks! And CCOP(=O)(CCCCCOc1cc(OCCCCCP(=O)(OCC)OCC)cc(C(=O)Nc2ccc(C(=O)NC3=NN(c4c(Cl)cc(Cl)cc4Cl)C(=O)C3)cc2)c1)OCC ?
stdout: 544

stdin: Thanks! And CCOP(=O)(CCCOc1cc(OCCCP(=O)(OCC)OCC)cc(C(=O)Nc2cccc(C(=O)NC3=NN(c4c(Cl)cc(Cl)cc4Cl)C(=O)C3)c2)c1)OCC ?
stdout: 546

stdin: Thanks! And CCCCOP(=O)(CCCOc1cccc(C(=O)Nc2ccc(NC3=NN(c4ccccc4)C(=O)C3)cc2)c1)OCCCC ?
stdout: 530

stdin: Thanks! And CCOP(=O)(CCCOc1cccc(NC2=NN(c3ccccc3)C(=O)C2)c1)OCC ?
stdout: 524

====

Assay: Absorption maximum after colour development in a photographic silver halide layer according to Use Example I
Format: physicochemical
Details: pyrazolone coupling agents
quantity-measured: Abs.max., first of two maxima (subsidiary maximum) (nm)
Express the result in nm but write the number alone.

stdin: Can you share its Abs.max., first of two maxima (subsidiary maximum)? I mean this molecule: CCCCOP(=O)(CCCOc1cccc(NC2=NN(c3ccccc3)C(=O)C2)c1)OCCCC
stdout: 430

stdin: Thanks! And CCCCOP(=O)(CCCOc1ccc(C(=O)Nc2cccc(C(=O)NC3=NN(c4c(Cl)cc(Cl)cc4Cl)C(=O)C3)c2)c(OCCCP(=O)(OCCCC)OCCCC)c1)OCCCC ?
stdout: 436

stdin: Thanks! And CCOP(=O)(CCCCCOc1cc(OCCCCCP(=O)(OCC)OCC)cc(C(=O)NC2=NN(c3c(Cl)cc(Cl)cc3Cl)C(=O)C2)c1)OCC ?
stdout: 432

stdin: Thanks! And CCCCOP(=O)(CCCOc1cc(OCCCP(=O)(OCCCC)OCCCC)cc(C(=O)Nc2cccc(C(=O)NC3=NN(c4c(C)cc(Cl)cc4Cl)C(=O)C3)c2)c1)OCCCC ?
stdout: 438

stdin: Thanks! And CCCCOP(=O)(CCCOc1cc(OCCCP(=O)(OCCCC)OCCCC)cc(C(=O)Nc2cccc(C(=O)NC3=NN(c4c(C)cc(C)cc4Cl)C(=O)C3)c2)c1)OCCCC ?
stdout: 440

stdin: Thanks! And CCCCOP(=O)(CCCOc1cccc(C(=O)Nc2cccc(NC3=NN(c4ccc(S(C)(=O)=O)cc4)C(=O)C3)c2)c1)OCCCC ?
stdout: 430

stdin: Thanks! And CCCCOP(=O)(CCCOc1cccc(C(=O)Nc2cccc(NC3=NN(c4ccccc4)C(=O)C3)c2)c1)OCCCC ?
stdout: 430

====

Test: Absorption maximum after colour development in a photographic silver halide layer according to Use Example I
Assay type: physicochemical
Conditions: pyrazolone coupling agents
Assign Abs.max., second of two maxima (absorption maximum) to each entry below.
Express the result in nm but write the number alone.

stdin: Can you share its Abs.max., second of two maxima (absorption maximum)? I mean this molecule: CCCCC(CC)COP(=O)(CCCOc1cccc(C(=O)Nc2cccc(C(=O)NC3=NN(c4c(C)cc(OC)cc4Cl)C(=O)C3)c2)c1)OCC(CC)CCCC (stereo not drawn) [(264)]
stdout: 536

stdin: Thanks! And CCCCC(CC)COP(=O)(CCCOc1cc(OCCCP(=O)(OCC(CC)CCCC)OCC(CC)CCCC)cc(C(=O)Nc2cccc(C(=O)NC3=NN(c4ccccc4)C(=O)C3)c2)c1)OCC(CC)CCCC (stereo not drawn) [(235)] ?
stdout: 532

stdin: Thanks! And CCCCOP(=O)(CCCOc1cc(OCCCP(=O)(OCCCC)OCCCC)cc(C(=O)NC2=NN(c3nc4ccccc4s3)C(=O)C2)c1)OCCCC [(257)] ?
stdout: 537

stdin: Thanks! And CCCCC(CC)COP(=O)(CCCOc1cccc(C(=O)Nc2ccc(NC3=NN(c4ccccc4)C(=O)C3)cc2)c1)OCC(CC)CCCC (stereo not drawn) [(420)] ?
stdout: 529

stdin: Thanks! And CCCCOP(=O)(CCCOc1cc(OCCCP(=O)(OCCCC)OCCCC)cc(C(=O)NC2=NN(c3ccc(C#N)cc3)C(=O)C2)c1)OCCCC [(253)] ?
stdout: 540

stdin: Thanks! And CCCCC(CC)COP(=O)(CCCOc1cccc(C(=O)Nc2cccc(C(=O)NC3=NN(c4c(Cl)cc(OC)cc4Cl)C(=O)C3)c2)c1)OCC(CC)CCCC (stereo not drawn) [(267)] ?
stdout: 536
